Biological target: HLA-A*02:01 (Homo sapiens, UniProt P04439, D140Y/D185E/D98H/E176V/E277Q/G131W/G231S/I119V/I121R/I166T/I218V/L300P/L318F/N151K/N90K/P208A/P217A/Q86G/Q94H/R138H/R169H/T345S)
Test: MHC binding assay (UV-ligand exchange, beta2m ELISA, peptide exchange yield)
Conditions: binding to HLA-A*02:01, β2m ELISA
Test readout: Peptide exchange (MHC class I binding score, peptide exchange yield)

> print(dat)
                                  substance             result
1  20 (YLKDGDVML; listed as Homo sapiens) [compound 20]  “+++” (≥50 = +++)
2  173 (KLGDLMVLL; listed as Homo sapiens) [compound 173]  “+++” (≥50 = +++)
3  153 (ILFSEDSTKLFV; listed as Homo sapiens) [compound 153]  “+++” (≥50 = +++)

###

Biological target: HLA-A*02:01 (Homo sapiens, UniProt P04439, D140Y/D185E/D98H/E176V/E277Q/G131W/G231S/I119V/I121R/I166T/I218V/L300P/L318F/N151K/N90K/P208A/P217A/Q86G/Q94H/R138H/R169H/T345S)
Experiment: MHC binding assay (UV-ligand exchange, beta2m ELISA, peptide exchange yield)
Settings: binding to HLA-A*02:01, β2m ELISA
Test readout: Peptide exchange (MHC class I binding score, peptide exchange yield)

> print(dat)
                                   substance             result
 1  83 (LTIEDGIFEV; listed as Homo sapiens) [compound 83]  “+++” (≥50 = +++)
 2  152 (KLLAVIHEL; listed as Homo sapiens) [compound 152]   “++” (≥20% = ++)
 3  175 (TLLGGKEAQALGV; listed as Homo sapiens) [compound 175]  “+++” (≥50 = +++)
 4  23 (FLDANGHFV; listed as Homo sapiens) [compound 23]  “+++” (≥50 = +++)
 5  105 (YALDLSTFL; listed as Homo sapiens) [compound 105]  “+++” (≥50 = +++)
 6  148 (RLLENMTEVV; listed as Homo sapiens) [compound 148]  “+++” (≥50 = +++)
 7  62 (YLAPENGYL; listed as Homo sapiens) [compound 62]   “++” (≥20% = ++)
 8  162 (KLMDYIDEL; listed as Homo sapiens) [compound 162]  “+++” (≥50 = +++)
 9  129 (VLIDVLKEL; listed as Homo sapiens) [compound 129]  “+++” (≥50 = +++)
10  1 (ALIKQLFEA; listed as Homo sapiens) [compound 1]  “+++” (≥50 = +++)
11  84 (SMVEDITGLRL; listed as Homo sapiens) [compound 84]  “+++” (≥50 = +++)
12  103 (FLFGYPKRL; listed as Homo sapiens) [compound 103]   “++” (≥20% = ++)
13  181 (NLFDLGGQYLRV; listed as Homo sapiens) [compound 181]  “+++” (≥50 = +++)
14  15 (LQLDKEFQL; listed as Homo sapiens) [compound 15]  “+++” (≥50 = +++)
15  179 (RLLSPLSSA; listed as Homo sapiens) [compound 179]  “+++” (≥50 = +++)
16  136 (KLFDIFSQQV; listed as Homo sapiens) [compound 136]  “+++” (≥50 = +++)
17  10 (RMYNKIFAI; listed as Homo sapiens) [compound 10]  “+++” (≥50 = +++)
18  150 (RLADLEALKV; listed as Homo sapiens) [compound 150]  “+++” (≥50 = +++)
19  109 (ALDGDQMEL; listed as Homo sapiens) [compound 109]   “++” (≥20% = ++)
20  35 (KLLDLTVRI; listed as Homo sapiens) [compound 35]  “+++” (≥50 = +++)

###

Target: HLA-A*02:01 (Homo sapiens, UniProt P04439, D140Y/D185E/D98H/E176V/E277Q/G131W/G231S/I119V/I121R/I166T/I218V/L300P/L318F/N151K/N90K/P208A/P217A/Q86G/Q94H/R138H/R169H/T345S)
Test: MHC binding assay (UV-ligand exchange, beta2m ELISA, peptide exchange yield)
Details: binding to HLA-A*02:01, β2m ELISA
Test readout: Peptide exchange (MHC class I binding score, peptide exchange yield)

> print(dat)
                                  substance                result
1  165 (RLLDFPEAMVL; listed as Homo sapiens) [compound 165]  “++++” (≥75% = ++++)
2  91 (TVDVATPSV; listed as Homo sapiens) [compound 91]     “+++” (≥50 = +++)
3  161 (FLKNELDNV; listed as Homo sapiens) [compound 161]     “+++” (≥50 = +++)
4  139 (VLLNEILEQV; listed as Homo sapiens) [compound 139]     “+++” (≥50 = +++)
5  42 (SILDDSFKL; listed as Homo sapiens) [compound 42]  “++++” (≥75% = ++++)

Ref: patent US11597752B2
